Data origin: paper PMC11524583

- Test system: hCMEC/D3 mono-culture BBB model
- study_conditions: human, 30 min
Decide by PS: equal to or exceeding 3000 µL/min/g means true (1), less means false (0).

Answered cases to consult:
**Q:** Confirm if PS reported for the molecule NC(=O)N1c2ccccc2C=Cc2ccccc21 [Carbamazepine] is 3000 µL/min/g or above.
**A:** false (0)

**Q:** Confirm if PS reported for the molecule CN1CCN2c3ncccc3Cc3ccccc3C2C1 (stereo not shown) is 3000 µL/min/g or above.
**A:** false (0)

**Q:** Confirm if PS reported for the molecule CN1CCN(C2=Nc3cc(Cl)ccc3Nc3ccccc32)CC1 is 3000 µL/min/g or above.
**A:** true (1)

More entries:
**Q:** Confirm if PS reported for the molecule CN(C)CCC=C1c2ccccc2CCc2ccccc21 is 3000 µL/min/g or above.
**A:** true (1)

**Q:** Confirm if PS reported for the molecule CCN(CC)CCNC(=O)c1cc(Cl)c(N)cc1OC [Metoclopramide] is 3000 µL/min/g or above.
**A:** false (0)

**Q:** Confirm if PS reported for the molecule CN(C)CCC=C1c2ccccc2COc2ccccc21 [Doxepin] is 3000 µL/min/g or above.
**A:** true (1)

**Q:** Confirm if PS reported for the molecule NC12CC3CC(CC(C3)C1)C2 is 3000 µL/min/g or above.
**A:** false (0)

----------
- experimental_protocol: In vitro BBB permeability study (Papp), triple co-culture BBB model
- study_conditions: human, Papp (individual replicate), Triple co-culture BBB model; single replicate values (4 per drug)
attribute_measured: Papp A→B at 30 min (nm/s)
Answers are plain numbers, in nm/s.

**Q:** Which Papp A→B at 30 min is reported for this molecule? COc1ccc(C(CN(C)C)C2(O)CCCCC2)cc1 (stereo not shown)
**A:** 74.8

----------
- experimental_protocol: In vitro BBB permeability study (Papp), hCMEC/D3 mono-culture BBB model
- study_conditions: human, Papp(cm/s) Mean, Figure 2N; group GDNF; group mean
attribute_measured: Papp A→B at 30 min (×10⁻⁶ cm/s)
Give bare numbers, in ×10⁻⁶ cm/s.

**Q:** Which Papp A→B at 30 min is reported for this compound? O=C1OC2(c3ccc(O)cc3Oc3cc(O)ccc32)c2ccccc21 [fluorescein, fluorescein sodium]
**A:** 19

----------
- experimental_protocol: In vitro BBB permeability study (Papp), triple co-culture BBB model
- study_conditions: human, Papp Mean, group h+S+U, Figure 1D/1E; mean of four replicates
attribute_measured: Papp A→B at 30 min (×10⁻⁶ cm/s)
Give bare numbers, in ×10⁻⁶ cm/s.

**Q:** Which Papp A→B at 30 min is reported for this compound? O=C1OC2(c3ccc(O)cc3Oc3cc(O)ccc32)c2ccccc21 [fluorescein, fluorescein sodium]
**A:** 24.9

----------
- experimental_protocol: In vitro BBB permeability study (Papp), hCMEC/D3 mono-culture BBB model
- study_conditions: human, Papp(cm/s) Mean, Figure 2N; group Mono; group mean
attribute_measured: Papp A→B at 30 min
In your response, put the unit directly after the numeric value.

**Q:** Which Papp A→B at 30 min is reported for this molecule? O=C1OC2(c3ccc(O)cc3Oc3cc(O)ccc32)c2ccccc21 [fluorescein, fluorescein sodium]
**A:** 23.8 ×10⁻⁶ cm/s

----------
- experimental_protocol: In vitro BBB permeability study (Papp), hCMEC/D3 mono-culture BBB model
- study_conditions: human, Papp, Mono group; single replicates; Figure 2R
attribute_measured: Papp A→B at 30 min (×10⁻⁶ cm/s)
Numbers only, in ×10⁻⁶ cm/s.

**Q:** Which Papp A→B at 30 min is reported for this compound? O=C1OC2(c3ccc(O)cc3Oc3cc(O)ccc32)c2ccccc21 [fluorescein, fluorescein sodium]
**A:** 30.7

----------
- Test system: hCMEC/D3 mono-culture BBB model
- experimental_protocol: In vitro BBB permeability study (Papp), hCMEC/D3 mono-culture BBB model
- study_conditions: read-out: Papp(cm/s); Figure 2P; group GDNF+PP2; individual replicates
attribute_measured: Papp A→B (×10⁻⁶ cm/s)
Answers are plain numbers, in ×10⁻⁶ cm/s.

**Q:** Which Papp A→B is reported for this molecule? O=C1OC2(c3ccc(O)cc3Oc3cc(O)ccc32)c2ccccc21 [fluorescein, fluorescein sodium]
**A:** 28.3

----------
- experimental_protocol: In vitro BBB permeability study (Papp), hCMEC/D3 mono-culture BBB model
- study_conditions: human, Papp Mean, group hCEMC/D3 mono-culture, Figure 1F; mean of four replicates
attribute_measured: Papp A→B at 30 min
In your response, put the unit directly after the numeric value.

**Q:** Which Papp A→B at 30 min is reported for this molecule? O=C1OC2(c3ccc(O)cc3Oc3cc(O)ccc32)c2ccccc21 [fluorescein, fluorescein sodium]
**A:** 35.7 ×10⁻⁶ cm/s

----------
- experimental_protocol: in vitro
- study_conditions: human, Papp Mean, Triple co-culture BBB model; mean of 4 replicates
attribute_measured: Papp A→B (×10⁻⁶ cm/s)
Answers are plain numbers, in ×10⁻⁶ cm/s.

**Q:** Which Papp A→B is reported for this compound? Cc1ncc2n1-c1ccc(Cl)cc1C(c1ccccc1F)=NC2
**A:** 19.1

----------
- experimental_protocol: Permeability (Papp) across the blank inserts
- Format: in vitro ADME
- study_conditions: not told, blank inserts (no cells), Figure 1F; mean of four replicates; read-out: Papp Mean
attribute_measured: Papp at 30 min (×10⁻⁶ cm/s)
Answers are plain numbers, in ×10⁻⁶ cm/s.

**Q:** Which Papp at 30 min is reported for this compound? O=C1OC2(c3ccc(O)cc3Oc3cc(O)ccc32)c2ccccc21 [fluorescein, fluorescein sodium]
**A:** 71.6

----------
Hi there, I'd appreciate the recorded PS for every entry that follows.
- System: triple co-culture BBB model (hCMEC/D3, U251 and SH-SY5Y cells)
- study_conditions: human, 30 min
Answers are plain numbers, in µL/min/g.

These recorded examples may help you get a feel for the data.
**Q:** Lab note: need PS with triple co-culture BBB model (hCMEC/D3, U251 and SH-SY5Y cells) for entry NC(=O)N1c2ccccc2C=Cc2ccccc21 [Carbamazepine] , please look it up.
**A:** 908.69

**Q:** Lab note: need PS with triple co-culture BBB model (hCMEC/D3, U251 and SH-SY5Y cells) for entry CN(C)CCC=C1c2ccccc2CCc2ccccc21 , please look it up.
**A:** 13149.00

**Q:** Lab note: need PS with triple co-culture BBB model (hCMEC/D3, U251 and SH-SY5Y cells) for entry CN1CCN2c3ncccc3Cc3ccccc3C2C1 (stereo not shown) , please look it up.
**A:** 2009.25

**Q:** Lab note: need PS with triple co-culture BBB model (hCMEC/D3, U251 and SH-SY5Y cells) for entry CCN(CC)CCNC(=O)c1cc(Cl)c(N)cc1OC [Metoclopramide] , please look it up.
**A:** 163.41

Please state, for each entry, its recorded PS.
1. CN(C)CCC=C1c2ccccc2COc2ccccc21 [Doxepin]
2. CN1CCN(C2=Nc3cc(Cl)ccc3Nc3ccccc32)CC1
3. NC12CC3CC(CC(C3)C1)C2

**A:**
1. 3837.60
2. 8272.72
3. 165.23

----------
- Tested on: triple co-culture BBB model (hCMEC/D3, U251 and SH-SY5Y cells)
- experimental_protocol: In vitro BBB permeability study (Papp), triple co-culture BBB model
- study_conditions: read-out: Papp; Triple+PP2 group; single replicates; Figure 2T
attribute_measured: Papp A→B (×10⁻⁶ cm/s)
One number for each entry, in ×10⁻⁶ cm/s.

**Q:** Which Papp A→B is reported for this molecule? O=C1OC2(c3ccc(O)cc3Oc3cc(O)ccc32)c2ccccc21 [fluorescein, fluorescein sodium]
**A:** 26.4

----------
- experimental_protocol: In vitro BBB permeability study (Papp), hCMEC/D3 mono-culture BBB model
- study_conditions: human, Papp(cm/s) Mean, Figure 2P; group GDNF+PP2; group mean
attribute_measured: Papp A→B at 30 min (×10⁻⁶ cm/s)
Numbers only, in ×10⁻⁶ cm/s.

**Q:** Which Papp A→B at 30 min is reported for this compound? O=C1OC2(c3ccc(O)cc3Oc3cc(O)ccc32)c2ccccc21 [fluorescein, fluorescein sodium]
**A:** 28.2

----------
- experimental_protocol: In vitro BBB permeability study (Papp), triple co-culture BBB model
- study_conditions: human, Papp, Triple+SPP group; single replicates; Figure 2R
attribute_measured: Papp A→B at 30 min (×10⁻⁶ cm/s)
Give bare numbers, in ×10⁻⁶ cm/s.

**Q:** Which Papp A→B at 30 min is reported for this molecule? O=C1OC2(c3ccc(O)cc3Oc3cc(O)ccc32)c2ccccc21 [fluorescein, fluorescein sodium]
**A:** 30.6

----------
- experimental_protocol: In vitro BBB permeability study (Papp), hCMEC/D3 mono-culture BBB model
- study_conditions: human, Papp, Mono, apical to basolateral, 30 min, 37°C, day 6; mean ± SEM, four biological replicates
attribute_measured: Papp A→B at 30 min
In your response, put the unit directly after the numeric value.

**Q:** Which Papp A→B at 30 min is reported for this molecule? COc1ccc(C(CN(C)C)C2(O)CCCCC2)cc1 (stereo not shown)
**A:** 9.58 ×10⁻⁶ cm/s
